system: triacylglycerol hydrolase (TGH); assay: Proteome-wide serine hydrolase selectivity screening, TGH; assay type: biochemical, human; details: value in parentheses; FAAH versus TGH
quantity: TGH (selectivity)

O=C(CCCCCCc1ccccc1)c1ncc(C(F)(F)F)o1 [Compound 5a, reference compound]    (3)
N#Cc1coc(C(=O)CCCCCCc2ccccc2)n1    (1.5)
O=C(CCCCCCc1ccccc1)c1nc(-c2ccccn2)co1    (330)
O=C(CCCCCCc1ccccc1)c1nc(-c2ccncc2)co1    (5)

Attention now shifts to the item below.
// returns reported TGH (selectivity) for input O=C(O)c1coc(C(=O)CCCCCCc2ccccc2)n1
(5)

Just for reference, patent US20120302607A1 is where these values come from.
